The origin of these recorded values is patent US20260258115A1.

- EXPERIMENTAL_TARGET: T1, RSV postfusion F (postF), subtype B (respiratory syncytial virus, subtype B)
- T1 construct: also called F ΔFP; Postfusion subtype B
- T1 sequence (P13843 26-109, chain 1 of 2): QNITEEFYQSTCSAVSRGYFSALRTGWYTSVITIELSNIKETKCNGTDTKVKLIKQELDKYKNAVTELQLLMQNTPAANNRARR
- T1 sequence (P13843 147-513, chain 2 of 2): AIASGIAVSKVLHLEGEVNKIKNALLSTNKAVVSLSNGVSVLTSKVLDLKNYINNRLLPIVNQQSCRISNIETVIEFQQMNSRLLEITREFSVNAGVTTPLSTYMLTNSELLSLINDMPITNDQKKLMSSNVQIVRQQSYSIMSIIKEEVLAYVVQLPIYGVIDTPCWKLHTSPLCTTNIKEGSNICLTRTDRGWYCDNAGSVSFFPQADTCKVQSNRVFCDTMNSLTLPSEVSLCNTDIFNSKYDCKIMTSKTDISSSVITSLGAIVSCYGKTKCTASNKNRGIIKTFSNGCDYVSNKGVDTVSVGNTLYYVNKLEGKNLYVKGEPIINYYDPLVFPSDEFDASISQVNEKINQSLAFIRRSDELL
- METHOD: BLI, IgG
PROPERTY_NAME: pKd
Kindly note that pKd refers to -log10 of the concentration in mol/L and answer with the value alone.

BINDER	pKd
ADI-21046 (antibody, V domains shown) VH: EVQLVESGAEAKKPGESLRISCTVSGYSFSKYWVGWVRQTPGKGLEWMGIIDPTDSDTRYSPSFQGQVTISVDNSINTAYLQWSSLKASDTAIYYCARRGQAKCVGNCPRDFMDVWGKGTTVTVSS VL: SYVLTQPPSVSGAPGQRVTISCAGSSSNIGAGYEVHWYQQLPGTAPKLLIYANRNRPSGVPDRFSGSRSGTSASLAISGLQAEDEADYYCQSYDNNLSGSWVFGGGTKLTVL	9.65

# input What value of pKd has been recorded for this entry: ADI-21002 (antibody, V domains shown) VH: QVQLVESGPGLVKPSGTLSLTCAVSGDSINSGNWWNWVRQAPGKGLEWIGEIYHRGTSNYNPSLKSRVTISVDQSKNQFSLKVTSLTAADTAIYYCARARGYSSGPSYYYYLDVWGKGTLVTVSS VL: EIVMTQSPSSLSASVGDRVTISCRASQSISTYLNWYQQKPGKAPKVIIYGASNLQSGVPSRFSGSGSGTDFTLTISSLQPEDFATYYCQKSFNPCVFGQGTKVDIK
# output 8.19

# input Next record, please: ADI-20997 (antibody, V domains shown) VH: EVQLVESGGGVVQPGRSLRLSCAASGFPFNSYGMHWVRQAPGKGLEWLAVIYFDESTAYYADSVKGRFTISRDNSKSTLYLQMNSLRAADTAIYYCTTTVMIPYGGVFWGQGTLVTVSS VL: EIVMTQSPGTLSLSPGDRATLSCRASQSVGSTHFAWYQQKPGQAPRLLIYAASIRATGIPDRFSGGGSGTDFTLTISRLAPEDFAVYYCQQYGSTPITFGQGTRLEIK
# output 9.22

# input Then ADI-21056 (antibody, V domains shown) VH: EVQLLESGGGLVKPGGSLKLSCAASGFTLRSYYMHWVRQAPGRGLEWVSSISASSSYINYVDAVKGRFTVSRDNAKNSLFLQMNSLRAEDTAVYYCAREGGAMTNFGVVIDIWGQGTMVTVSS VL: SYVLTQPPSVSGAPGQRVTISCTGSSSNIGAGYDVHWYQQLPGTAPKLLIYTNTNRPSGVPDRFSGSKSGTSASLAITGLQSDDEADYYCQSYDSSLSGPVVFGGGTKLTVL ?
# output 7.20

# input And for ADI-20963 (antibody, V domains shown) VH: EVQLVESGGGLAKPGGSLRLSCAASGFTFSHYNMNWVRQAPGKGLEWVSSISSTGFHIYYADSVKGRFVISRDNAENSLHLQMNSLRADDTGLYYCVRAEYYYGSGSAGHYFDSWGQGTLVTVSS VL: SYVLTQPPSVSVAPGHTAKITCGGSIIGTKSVHWYQQKPGQAPVLVVYDDSDRPSGIPERLSGSRSGNTATLTITRVEAGDEADYYCQVWDSSSEHAGVFGGGTKLTVL ?
# output 9.21

# input Same again, this time with ADI-20990 (antibody, V domains shown) VH: EVQLVESGGGVVQPGRSLRLSCSASGFPFHSYAMHWVRQAPGKGLEWVAGIWYEGSSESYADSVKGRLTISRDNSRNTLYLQMNSLRVEDTAVYYCARRGSFSGFDSWGQGSLVTVSS VL: DIVMTQSPLSLPVTPGEPASISCRSSQSLLHSNGYNYLDWYLQKPGQSPQLLISLGSNRASGVPDRFSGSVAGTDFTLKISRVEAEDVGVYYCMQSSQTPYTFGQGTKVDIK
# output 9.51

# input How about this binder: ADI-21061 (antibody, V domains shown) VH: QVQLVQSGAEVKKPGSSVKVSCKASGGTFSNYPISWVRQAPGHGLEWMGRVVPTVGLANYAQNLQGRVTITADTSTNTVYMELRSLRSEDTGLYYCARRAVVDTYAFDIWGQGTLVTVSS VL: QSALIQPASVSGFPGQSITISCTGASSDVGGYNFVSWYQQHPGKAPKLIIYEVTKRPSGVSNRFSGSESGNTASLTISGLQAEDEADYYCSSFRYTSSIVYVFGSGTKVTVL
# output 8.61

# input Input ADI-14594 (antibody, V domains shown) VH: QVQLVQSGAEVKKPGASVKLSCKASGYTFTTYTINWVRQAPGQGLEWMGWISGYNGNTDYAQKLQGRFTMTTDTSTNTAYMELRSLTSDDTAVYYCAKGGGGSESYFDYWGQGTLVTVSS VL: SYELTQPPSVSVAPGKTARISCGGNNIGSKSVHWYQQKPGQAPVLVIYYDRDRPSGIPERFSGSNSGNTATLTISRVEAGDEADYYCQLWDRSSDHPYVFGTGTKVTVL
# output 9.67

# input Try this binder too: ADI-14595 (antibody, V domains shown) VH: EVQLLESGGGLVQPGGSLRLSCAASGFTFSIYSMNWVRQAPGKGLEWISYISRSGSTIFYADSVKGRFTISRDDAKNSLFLQMTSLRDADTAVYYCARVDCSNNKCYDYWGQGTLVTVSS VL: DIQLTQSPATLSLSPGERATLSCRASQSISSFLAWYQQKPGQAPRLLIYDASKRATGTPARFSGGGSGRDFTLTISSLEPEDFAVYYCQQRSSWPLYTFGQGTKVEIK
# output 7.84

# input Try ADI-20981 (antibody, V domains shown) VH: QVQLQESGPRLVKPSETLSLTCTVSGDSISSRNYFWAWIRQPPGKGLEWIGTIYYSGNTYSNPSLKSRVTISVDTSKKQFSLNLSSVTAADTAVYYCARGAYGGDAFDIWGQGTVVTVSS VL: DIRVTQSPSSVSASVGDRVTITCRASQGIGTWLAWYQQKPGKAPHLLIYAASRLQSGVPSRFSGSGSGTDFTLSISSLHPEDFATYYCQQAYAFPRTFGQGTKVEIK next.
# output 9.53
